Reference for the values: paper PMC3557594

target: NmAPN (Neisseria meningitidis, UniProt Q9JYV4); assay: biochemical; type: biochemical, Neisseria meningitides; conditions: calculated from IC50 by Cheng-Prusoff equation; L-Arg-ACC 20 μM
QUANTITY: pKi
Remember, pKi is on a log scale: it is -log10 of the molar concentration.

Ask: Consider the compound NC(CCc1ccccc1)P(=O)(O)CNC(Cc1ccc(O)cc1)C(=O)O (stereo not shown) and give its measured pKi.
Result: 5.60

---

molecular target: NmAPN (Neisseria meningitidis, UniProt Q9JYV4); assay: biochemical; type: biochemical, Neisseria meningitides
QUANTITY: IC50 (µM)
Unit µM implied. Number only.

Ask: Item NC(CCc1ccccc1)P(=O)(O)CC(Cc1ccc(O)cc1)C(=O)O (centres unmarked) has what recorded IC50?
Result: 0.07

Ask: I am curious: what IC50 value has been reported for NC(CCc1ccccc1)P(=O)(O)O (centres unmarked) ?
Result: 1.66

Ask: // returns reported IC50 for input NC(CCc1ccccc1)P(=O)(O)CC(Cc1ccccc1)C(=O)O (centres unmarked)
Result: 0.397

Ask: Field request: IC50 | item: N=C(N)NCCCC(N)P(=O)(O)O (centres unmarked)
Result: 1.91

Ask: If you can, please state the reported IC50 value of NC(CCc1ccccc1)[PH](=O)O (centres unmarked) .
Result: 1.91

---

target: UniProt Q9JYV4; test: biochemical; type: biochemical, Neisseria meningitides; conditions: L-Arg-ACC 20 μM, enzyme 0.85 nM, 30 min preincubation, 37 °C
QUANTITY: IC50 (µM)
Give the number; µM is assumed, so skip it.

Ask: Entry NC(CCc1ccccc1)P(=O)(O)CNC(Cc1ccc(O)cc1)C(=O)O (stereo not shown) [Compound 6] has what IC50?
Result: 3.29
